- EXPERIMENT_DESCRIPTION: chemical genetic growth profiling, strain panel (AID 1159580);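 also: tested at 20 µM; growth read once vehicle control cultures reached saturation at 30 °C; 1 = growth at the plate median or of vehicle wells; lower values mean less growth of the strain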
- CONDITION_INFO: S. cerevisiae deletion strains, growth OD, locus YLL001W, strain dnm1, active compounds read low
Screen size: about 5,500 compounds; about 2,000 (36%) were called active. Another 18% or so got no clear call; they are omitted. The list shows a part of the results.
ASSAY_READOUT: normalized growth
I'd appreciate a reply containing only the number, no unit.

Known results for compounds:
{"COMPOUND": "CCOC(=O)C1C(C=C(C)C)C1(C)C (stereo not drawn)", "MEASURED": 0.978}
{"COMPOUND": "CCCCCCc1ccc(O)cc1O", "MEASURED": 0.935}
{"COMPOUND": "CCCCC1C(=O)N(c2ccccc2)N(c2ccccc2)C1=O", "MEASURED": 0.992}
{"COMPOUND": "CCCCCCCCCc1ccc(O)cc1", "MEASURED": 0.0778}
{"COMPOUND": "O=c1cc(-c2ccc(O)cc2)oc2ccc(O)cc12", "MEASURED": 0.964}
{"COMPOUND": "O=c1cc(-c2cccc(O)c2)oc2ccc(O)cc12", "MEASURED": 0.945}

Lab note: measured normalized growth of "CC(=O)N(O)CCCCCNC(=O)CCC(=O)N(O)CCCCCNC(=O)CCC(=O)N(O)CCCCCN" was 0.991

Lab note: measured normalized growth of "O=C(O)c1nc2cc(Cl)c(Cl)cc2[nH]c1=O" was 1.01

Lab note: measured normalized growth of C=CCCCCCCCCCCCC(O)CC(O)CO (stereo not drawn) was 0.976

Lab note: measured normalized growth of "O=c1cc(-c2ccc(O)c(O)c2)oc2ccccc12" was 0.965
